Assay: Plasma pharmacokinetics of pemigatinib (LC–MS/MS, non-compartmental), phase I
Format: in vivo, human (Chinese patients)
Details: human, plasma, po, 13.5 mg, 13.5 mg oral QD, C1D1, N=12; read-out: tmax, median (min, max)
Reported metric: Tmax

Query :: Read off the recorded Tmax for CCN1C(=O)N(c2c(F)c(OC)cc(OC)c2F)Cc2cnc3[nH]c(CN4CCOCC4)cc3c21 [pemigatinib]
Result :: ~1.52 h

* * *

Experiment: Plasma pharmacokinetics of pemigatinib (LC–MS/MS, non-compartmental), phase I
Assay type: in vivo, human (Chinese patients)
Conditions: human, plasma, po, 13.5 mg, 13.5 mg oral QD, C1D1, N=12; read-out: Cmax, geometric mean (converted)
Reported metric: Cmax

Query :: Read off the recorded Cmax for `CCN1C(=O)N(c2c(F)c(OC)cc(OC)c2F)Cc2cnc3[nH]c(CN4CCOCC4)cc3c21`
Result :: 154 nM
